experiment_description: soluble on expression in E. coli; label from the status in PepcDB or PDB records

seq	soluble on expression in E. coli
DAPLNSVEGFIRQVLGWREFLRHVYRREMPSLAEANQLGANEALPDFYWNGDTDMACLSDVVDGVRERGYSHHIERLMILANFGLIYGVEPAQLNRWFHAGYVDAFHWVTTPNVVEMGLYGAGVFATKPYASSANYVDKMSDYCSGCPYYKTKTTGDGACPFNALYWDFLDRNEETLRSNHRMGLMYSHVDNKSDEELGEIRERAAEIREMATKGE	not soluble
MAHHHHHHMTEGPLIVVGSVTLDQAARCYSPLSAPLRVRLEYAVLRPVVNPAWAATFEADIAYGRISVPLVQPTACSECMTPLNVPSSFLQHTPSDSIATLQPGELYQLDVHLETMELSKVEEKYVLQVGMLRLILLSGKTELADVNHVVQVKKNDDGELMRLIMNPLV	not soluble
FDSFKIEGRAKNADYVMRTTKIYREAIDSVLDGSYYDKLEYFKKELQKVYNRSYDTGFYFRDINKNHDFQYEIEGNASKYRKIEIGRVVNFYKKVSVAEIELWHDLKIGDTILIIGKTTGCVEEVVKSMQINHKDVEIAKKGERVGVKLNHLVREGDRVYLLKET	not soluble
